These data points were gathered from patent US20240132578A1.

molecular target: HIV-1 Env of isolate MGRM-C-028 (subtype C) (HIV-1); assay: cell-based or functional assay
Measured quantity: IC50 (µg/mL), pseudovirus neutralization

Binder	Measured
PGT-125 (antibody, V domains shown) VH: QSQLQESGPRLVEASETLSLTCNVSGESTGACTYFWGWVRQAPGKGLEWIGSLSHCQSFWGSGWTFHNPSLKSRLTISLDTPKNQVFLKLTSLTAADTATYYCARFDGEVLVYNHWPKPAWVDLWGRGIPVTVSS VL: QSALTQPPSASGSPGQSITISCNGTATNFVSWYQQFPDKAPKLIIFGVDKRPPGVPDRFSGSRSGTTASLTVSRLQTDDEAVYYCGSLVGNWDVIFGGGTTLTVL	14
